# Tested on: HS-PSS
# Protocol text: drug sensitivity score (DSS, CellTiter-Glo viability, 72 h) (DSS (dimensionless)); higher = more sensitive; extreme values may be limits of the assay
In this section, each of the compounds is paired with its reported drug sensitivity score.
Kindly provide the number alone.

// solved cases for drug sensitivity score follow
{"columns": ["Compound", "Quantitative readout"],
 "data": [
  ["CCCOc1ccn2c(C(C)=O)cc(-c3ccccc3S(C)(=O)=O)c2c1 [GSK2801] (max concentration tested 10000 nM)", 0],
  ["CC(C)[C@@H](CS(=O)(=O)C(C)C)N1C(=O)[C@@](C)(CC(=O)O)C[C@H](c2cccc(Cl)c2)[C@H]1c1ccc(Cl)cc1 [AMG-232] (max concentration tested 1000 nM)", 0.61]
]}

Now consider a different compound.
Lookup: Record request: drug sensitivity score value, item C[C@@H]1C[C@H]2[C@@H]3CCC4=CC(=O)C=C[C@]4(C)[C@@]3(F)[C@@H](O)C[C@]2(C)[C@@]1(O)C(=O)CO [Dexamethasone] (max concentration tested 10000 nM)
Found: 0

----------
# Tested on: HSC1
# Protocol text: relative IC50 (inflection point of fitted dose-response curve, CellTox-Green cytotoxicity, 72 h; top asymptote may be below 50%); higher = less potent
Measured quantity: relative IC50

// solved cases for relative IC50 follow
{"columns": ["Molecule", "relative IC50"],
 "data": [
  ["CNC(=O)c1cc(Oc2ccc(NC(=O)Nc3ccc(Cl)c(C(F)(F)F)c3)cc2)ccn1", "> 1000 nM"],
  ["Nc1nc2[nH]cnc2c(=S)[nH]1", "> 10000 nM"],
  ["Cc1c2oc3c(C)ccc(C(=O)N[C@@H]4C(=O)N[C@H](C(C)C)C(=O)N5CCC[C@H]5C(=O)N(C)CC(=O)N(C)[C@@H](C(C)C)C(=O)O[C@@H]4C)c3nc-2c(C(=O)N[C@@H]2C(=O)N[C@H](C(C)C)C(=O)N3CCC[C@H]3C(=O)N(C)CC(=O)N(C)[C@@H](C(C)C)C(=O)O[C@@H]2C)c(N)c1=O", "12.4 nM"],
  ["CC1(C)CCC(c2ccc(Cl)cc2)=C(CN2CCN(c3ccc(C(=O)NS(=O)(=O)c4ccc(N[C@H](CCN5CCOCC5)CSc5ccccc5)c(S(=O)(=O)C(F)(F)F)c4)cc3)CC2)C1", "1540 nM"]
]}

Lookup: Request body: readout relative IC50, system HSC1, query O=P1(N(CCCl)CCCl)NCCCO1 (stereo unspecified) [Cyclophosphamide] . Return the value.
Found: > 40000 nM

Lookup: Now consider `Cn1cnc2c(F)c(Nc3ccc(Br)cc3F)c(C(=O)NOCCO)cc21` .
Found: > 1000 nM

----------
# Tested on: HS-Sch-2
# Protocol text: % inhibition of CellTiter-Glo viability at highest tested concentration (72 h), relative to DMSO and benzethonium chloride controls; higher = more inhibition
In this section, each of the molecules is paired with its reported % inhibition.
A bare number is not enough; add the unit after it.

// solved cases for % inhibition follow
{"columns": ["Molecule", "Result"],
 "data": [
  ["COC(=O)N[C@@H](C)CNc1nccc(-c2cn(C(C)C)nc2-c2cc(Cl)cc(NS(C)(=O)=O)c2F)n1 [Encorafenib] (max concentration tested 1000 nM)", "14.4%"],
  ["NC1(C(=O)N[C@@H](CCO)c2ccc(Cl)cc2)CCN(c2ncnc3[nH]ccc23)CC1 [AZD-5363] (max concentration tested 10000 nM)", "66.5%"]
]}

Now consider a different molecule.
Lookup: Record request: % inhibition value, item CS(=O)(=O)N1CCc2c(-c3cnc(N)nc3)nc(N3CCOCC3)nc21 (max concentration tested 10000 nM)
Found: 32%

----------
In this section, each of the compounds is paired with its reported relative IC50.
# Test system: HS-Sch-2
# Protocol text: relative IC50 (inflection point of fitted dose-response curve, CellTiter-Glo viability, 72 h; top asymptote may be below 50% inhibition); higher = less potent

{"columns": ["Compound", "relative IC50"],
 "data": [
  ["O=P1(NCCCl)OCCCN1CCCl (configuration not stated) [Ifosfamide]", "> 10000 nM"],
  ["COCC(=O)NC/C=C/c1ccc2ncnc(Nc3ccc(Oc4ccc(C)nc4)c(C)c3)c2c1", "1250 nM"],
  ["COc1ccc(-c2cc3c(C)nc(N)nc3n([C@H]3CC[C@H](OCCO)CC3)c2=O)cn1", "476 nM"],
  ["CCN(CC)CCNC(=O)c1c(C)[nH]c(/C=C2\\C(=O)Nc3ccc(F)cc32)c1C [Sunitinib]", "> 1000 nM"],
  ["C[C@]12CC[C@H](O)CC1=CC[C@@H]1[C@@H]2CC[C@]2(C)C(c3cccnc3)=CC[C@@H]12 [Abiraterone]", "> 5000 nM"],
  ["Cc1cc2c(F)c(Oc3ncnn4cc(OC[C@@H](C)O)c(C)c34)ccc2[nH]1 [Brivanib]", "> 1000 nM"]
]}

Lookup: Record request: relative IC50 value, item CC1(C)CNc2cc(NC(=O)c3cccnc3NCc3ccncc3)ccc21 [Motesanib]
Found: > 10000 nM

Lookup: Now consider Cc1cc([C@@H](C)Nc2ccccc2C(=O)O)c2nc(N3CCOCC3)cc(=O)n2c1 [AZD-6482] .
Found: > 2500 nM

Lookup: Now consider Oc1nc(-c2ccc(C(F)(F)F)cc2)nc2c1CSCC2 [XAV-939] .
Found: > 10000 nM

Lookup: Now consider CS(=O)(=O)c1ccc(-c2cnc(N)c(C(=O)Nc3ccccc3)n2)cc1 [VE-821] .
Found: > 10000 nM

Lookup: Now consider CNC(=O)c1ccccc1Sc1ccc2c(/C=C/c3ccccn3)n[nH]c2c1 [Axitinib] .
Found: 1700 nM

Lookup: Now consider COc1cccc(OCCCN)c1-c1cc(Nc2cnc(C#N)cn2)n[nH]1 [Prexasertib] .
Found: 26 nM

Lookup: Now consider CO[C@H]1C[C@@H]2CC[C@@H](C)[C@@](O)(O2)C(=O)C(=O)N2CCCC[C@H]2C(=O)O[C@H]([C@H](C)C[C@@H]2CC[C@@H](O)[C@H](OC)C2)CC(=O)[C@H](C)/C=C(\C)[C@@H](O)[C@@H](OC)C(=O)[C@H](C)C[C@H](C)/C=C/C=C/C=C/1C [Sirolimus] .
Found: 6.38 nM

Lookup: Now consider O=C1CN2Cc3c(ccc(Cl)c3Cl)N=C2N1 [Anagrelide] .
Found: 144 nM

Lookup: Now consider O=C(/C=C\n1cnc(-c2cc(C(F)(F)F)cc(C(F)(F)F)c2)n1)NNc1cnccn1 [Selinexor] .
Found: 211 nM

Lookup: Now consider CCOC(=O)CCNc1cc(N2CCc3ccccc3CC2)nc(-c2ccccn2)n1 [GSK-J4] .
Found: 4520 nM

Lookup: Now consider CN(C)Cc1c(C(=O)NCCOc2ccc(C(=O)NO)cc2)oc2ccccc12 [Abexinostat] .
Found: 197 nM

----------
# Tested on: S462
# Protocol text: % inhibition of CellTiter-Glo viability at highest tested concentration (72 h), relative to DMSO and benzethonium chloride controls; higher = more inhibition
Measured quantity: % inhibition (%)
Numeric answer only, unit % assumed.

// solved cases for % inhibition follow
{"columns": ["Compound", "% inhibition [%]"],
 "data": [
  ["Nc1ncnc2c1nc(Cl)n2[C@@H]1O[C@H](CO)[C@@H](O)[C@H]1O [8-chloro-adenosine] (max concentration tested 50000 nM)", 82.1],
  ["Nc1nc(Cl)nc2c1ncn2[C@@H]1O[C@H](CO)[C@@H](O)[C@@H]1F [Clofarabine] (max concentration tested 10000 nM)", 103],
  ["CC(=O)O[C@@]12CO[C@@H]1C[C@H](O)[C@@]1(C)C(=O)[C@H](O)C3=C(C)[C@@H](OC(=O)[C@H](O)[C@@H](NC(=O)OC(C)(C)C)c4ccccc4)C[C@@](O)([C@@H](OC(=O)c4ccccc4)[C@H]21)C3(C)C [Docetaxel] (max concentration tested 1000 nM)", 96.9],
  ["NC(=O)NO [Hydroxyurea] (max concentration tested 100000 nM)", -3.38],
  ["C=CC(=O)Nc1cc2c(Nc3ccc(F)c(Cl)c3)ncnc2cc1OCCCN1CCOCC1 [Canertinib] (max concentration tested 10000 nM)", 96.1]
]}

Lookup: Record request: % inhibition value, item C[C@H]1C[C@@H]2[C@H]([C@@H](O)C[C@@]3(C)[C@H]2CC[C@]3(O)C(=O)CO)[C@@]2(C)C=CC(=O)C=C12 [Methylprednisolone] (max concentration tested 10000 nM)
Found: 4.77

Lookup: Now consider Cc1cc(C(C)Nc2ccccc2)c2nc(N3CCOCC3)cc(=O)n2c1 (configuration not stated) [TGX-221] (max concentration tested 10000 nM) .
Found: 7.98

----------
# System: HS-PSS
# Protocol text: drug sensitivity score (DSS, CellTox-Green cytotoxicity, 72 h) (DSS (dimensionless)); higher = more cytotoxic; extreme values may be limits of the assay
In this section, each of the molecules is paired with its reported drug sensitivity score.
Kindly provide the number alone.

// solved cases for drug sensitivity score follow
{"columns": ["Molecule", "drug sensitivity score"],
 "data": [
  ["CCn1cc(-c2ccnc3[nH]c(-c4cccc(CN(C)C)c4)cc23)c(-c2ccc(NC(=O)N(C)C)cc2)n1 (max concentration tested 1000 nM)", 0],
  ["CCc1nc(-c2cccc(C)c2)c(-c2ccnc(NC(=O)c3ccccc3)c2)s1 [TAK-715] (max concentration tested 10000 nM)", 0]
]}

Lookup: Record request: drug sensitivity score value, item CN(C)c1cc2c(cc1Sc1nc3c(N)nccc3n1CCNCC(C)(C)C)OCO2 [CUDC-305] (max concentration tested 10000 nM)
Found: 4.43

Lookup: Now consider CCN1CCN(Cc2ccc(-c3cc4c(N[C@H](C)c5ccccc5)ncnc4[nH]3)cc2)CC1 [NVP-AEE788] (max concentration tested 2500 nM) .
Found: 0

Lookup: Now consider C[C@@H]1CN(Cc2ccc(F)cc2)[C@@H](C)CN1C(=O)c1cc2c(C(=O)C(=O)N(C)C)cn(C)c2cc1Cl [Talmapimod] (max concentration tested 10000 nM) .
Found: 0

The reported numbers originate from the supplement of paper PMC5579334.
